Measurement target: Neu5Ac(a2-3)Gal(b1-4)GlcNAc(b1-3)Gal(b1-4)GlcNAc(b1-3)GalNAc
Procedure text: glycan array binding signal (z-score within array); higher = stronger binding
Test settings: glycan notation: IUPAC condensed, linker removed
This is one part of a sample in which the strongest signals are shown more often than they occur.
Experimental readout: glycan array binding signal (z-score)
Give the figure only, with no unit attached.

Binder: CFEM-PPm (Pichia pastoris), F2QPV1 (protein) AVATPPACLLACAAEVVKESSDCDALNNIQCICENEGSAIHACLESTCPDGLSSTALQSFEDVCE
Experimental value: -0.282

Reported glycan array binding signal (z-score), binder TAL6-4LysM (Trichoderma atroviride) (protein) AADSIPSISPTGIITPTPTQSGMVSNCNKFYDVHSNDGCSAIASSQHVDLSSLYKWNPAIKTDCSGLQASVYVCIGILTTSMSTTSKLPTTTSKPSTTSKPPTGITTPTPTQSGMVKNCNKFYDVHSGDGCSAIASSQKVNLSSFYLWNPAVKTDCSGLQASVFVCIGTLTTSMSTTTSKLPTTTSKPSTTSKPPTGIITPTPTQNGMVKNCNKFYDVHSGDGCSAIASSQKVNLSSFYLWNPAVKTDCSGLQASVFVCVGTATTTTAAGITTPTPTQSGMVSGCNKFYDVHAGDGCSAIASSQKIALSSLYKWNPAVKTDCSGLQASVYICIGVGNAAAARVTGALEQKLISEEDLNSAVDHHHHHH : ____ -0.304
